test system: IPF-rc-stimulated primary human small airway epithelial cells (SAEC); test: Biomarker release of IPF-rc-stimulated small airway epithelial cells (ELISA of supernatants); type: cell-based; conditions: Homo sapiens; SAEC from 5 donors; 30 min pre-stimulation; supernatants 72 hrs after stimulation; read-out: IC50 of IPF-rc-induced release of OPN
test_readout: IC50

Give the measured IC50 of [O-][S@+]1CCc2nc(N3CCC(c4ncc(Cl)cn4)CC3)nc(NC3(CO)CCC3)c21 .
~1100 nM
